# tested.system: human recombinant 6His-Nterm SHP2 full-length (Thr2-Arg593) (Homo sapiens, UniProt Q06124)
# Construct: 6His-Nterm SHP2 full-length (Thr2-Arg593, R&D system); 6His (N)
# Sequence (Q06124 2-593): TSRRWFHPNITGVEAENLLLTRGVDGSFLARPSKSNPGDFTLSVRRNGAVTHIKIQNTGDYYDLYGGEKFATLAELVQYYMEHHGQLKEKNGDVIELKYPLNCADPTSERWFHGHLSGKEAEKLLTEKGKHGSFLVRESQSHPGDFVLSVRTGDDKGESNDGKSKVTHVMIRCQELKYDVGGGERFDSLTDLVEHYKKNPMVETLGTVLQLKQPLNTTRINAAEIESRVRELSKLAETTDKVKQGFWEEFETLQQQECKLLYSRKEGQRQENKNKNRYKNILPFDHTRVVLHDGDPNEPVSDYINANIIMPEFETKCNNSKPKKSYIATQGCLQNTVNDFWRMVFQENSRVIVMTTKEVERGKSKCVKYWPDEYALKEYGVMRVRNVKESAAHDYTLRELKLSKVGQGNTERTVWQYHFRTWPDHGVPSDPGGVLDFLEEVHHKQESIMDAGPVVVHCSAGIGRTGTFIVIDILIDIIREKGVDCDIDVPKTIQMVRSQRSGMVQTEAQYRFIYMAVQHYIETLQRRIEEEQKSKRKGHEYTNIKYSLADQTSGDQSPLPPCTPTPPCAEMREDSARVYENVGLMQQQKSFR
# assay.protocol: SHP2 Phosphatase Assay (DiFMUP fluorescence)
# measurement.parameters: SHP2 0.2 nM pre-incubated with 100 nM bi-phosphorylated activating peptide; compound 1000-0.05 nM, 30 min pre-incubation; DiFMUP 20 µM, 45 min, room temperature; 10-concentration dose-response
Counter-ions that a name gives are not always drawn.
measured.parameter: IC50 (nM)

(P) COc1ccc2c(n1)CC1(CCN(c3nc(C)c(-c4cccc(F)c4F)n4nccc34)CC1)[C@@H]2N [Compound 221]
(Q) Cc1nc(N2CCC3(CC2)Cc2ncccc2[C@H]3N)c2ccnn2c1-c1ccc2nccnc2c1Cl [Compound 77]
(R) Cc1nccc(Sc2c(C)nc(N3CCC4(CC3)Cc3ncccc3[C@H]4N)c3ccnn23)c1F [Compound 229]
(S) Cc1nc(N2CCC3(CC2)Cc2ncccc2[C@H]3N)c2ccnn2c1-c1cccc(F)c1C [Compound 197]
Problem: Rank the 4 compounds: largest IC50 first, smallest last. Labels, ranked as asked.
Result: P, R, S, Q
(P: 21 nM, R: 14 nM, S: 7 nM, Q: 4 nM)

(I) N[C@@H]1c2cccnc2CC12CCN(c1ncc(-c3cccc(F)c3F)n3nccc13)CC2 [Compound 26, formate]
(II) COc1cc2c(cn1)CC1(CCN(c3nc(C)c(-c4ccccc4)n4nccc34)CC1)[C@@H]2N [Compound 135]
Problem: Given I and given II , which shows the smaller recorded IC50? Use the label to indicate which entry you chose.
Result: II
